experiment: amyloid nucleation score (Sup35N fusion, yeast selection) (log enrichment); library NNK2; higher = more nucleation; inactive = no reads after selection;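 also: zero at mode of non-aggregating sequences after 7 days selection at 30°C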
Label scheme, based on amyloid nucleation score: lower band: < -0.4; central band: ≥ -0.4 and < 0.7; upper band: ≥ 0.7

Into which bin does this substance go? AVQVLYRGTFLLPFWRVANV
lower band

Ok, now VFWLLGCVHNRGVGQTSHKL
upper band

Similarly, ASGNRTFVVMLLNRRKMMST ?
central band

How about HFNSLVSGQYMWSSGKSLVP ?
upper band

Quick one: IGWGYRWVRWL
lower band

Please give the result for DSFLKKCSLIRIQVRAVFVL too.
lower band

Please answer likewise for TWTLQQSVLVSEKNAKGRVT
upper band

And for CRWTASAIHARGRVSDRMRD ?
central band

Check NSSEINHSKG too.
lower band

Next record, please: YVCGWINVLG
lower band

What about ISMTTVDPQMEEFGLRHVGV ?
upper band

Likewise for TLAWGSGELTTLTADEDLPS ?
central band

And what about the substance TVSNPGMPNAI ?
lower band

// next record YKVNWG
upper band

// same read-out, input: FTNLVTLYVYCYSFWYGILN
central band

Query ALRLLSFKVMVVEDYLTMTL next
upper band

----------
test: amyloid nucleation score (Sup35N fusion, yeast selection) (log enrichment); library NNK2; higher = more nucleation; inactive = no reads after selection
amyloid nucleation score below -0.1 gives false (0); amyloid nucleation score at or above it gives true (1).

Given the entry LELHMGNLSSSTAYWLRRYS , answer whether its amyloid nucleation score meets or surpasses -0.1.
false (0)

Can you check SLLIFMSFYYWLQVSYRPPR next?
false (0)

Would you kindly repeat that for SDNVLNDSSCLLYINFGAGQ ?
true (1)

Param item: QTLAYTSDKTS
true (1)

Can you handle YFGMISERFRFPVYFQNSPR next?
false (0)

Queued: RWKTVFRVYVEQKALPDLIC
true (1)

And the next one, CLAFLGLLKSFMITKGW ?
false (0)

Would you mind doing ELLEGYSLKEMYAFPVKWAV as well?
true (1)

Then what about the substance KVAFLLRVGAYFDSWWHRRV ?
true (1)

And what about the substance NGVGLSVTGKCCKERSIFPP ?
false (0)

Proceed to PHDGRNWFSVSDLMIGSDVG
true (1)

Entry to check: DETNGTGSRVRLVRRYER
true (1)

What would you report for YRPRDCISRVTYMRTVIVIL ?
false (0)

Another substance: GSNTSDHDNLD
false (0)

What do you have for FCREWDRSRQKG ?
true (1)

# iterate: CSPCFLSCGPYNNGPE
true (1)

# iterate: TNLMAFLRPFAVVTRND
false (0)

Similarly, DSSVSAPMSSFDRWTTHCVL ?
true (1)

Then SREVRNANPSSGDDGSIRVE ?
true (1)

And what about the substance CVVEQALLLWN ?
false (0)

Next: NNHGLRTYIGPYISWLIYFS
true (1)

Subsequent entry: ISRLWCHRHLCCPGWSMVRQ
true (1)

Continue with KGFDEVGMMAIGFDSWVGTR
true (1)

Same question, ATKRGVHSQLCDCLRCMEFS this time
true (1)

Field entry: RCLNQTTYRNNSPCAVLWCM
true (1)

// next record SGEVSAVRV
true (1)

Note, next up: LSYVDWKCAVFDICW
true (1)

MMLRLSCSSPQSLVRSSS ?
false (0)

Queued: SYIWSECRTNMIVWASNTLK
true (1)

Moving on to the next substance: YHRYAAS
true (1)

Check DLGGMP too.
false (0)

Now the substance LFMLGMSAQLVFAFSLLGGI
true (1)

Repeat for the following substance: FFQFTTDSHCND
true (1)

Same question for CPVAQYQG please.
false (0)

And EARVSDSVFGLVVVKTMCYV ?
true (1)

Now give it for YFIGGGLRVMSRWWMCALMD too.
true (1)

How about this substance: GSNETPHLDALSPSALRMGH
true (1)

# repeat for YIGLVSS
true (1)

Input YERVRRSVYSSMFFSLFNTR
false (0)

Query SNIGCRKIWTSLRSMDLIIG next
true (1)

What do you have for RYFWRVSNIVWASAF ?
false (0)

Now this one: STESARSKRGMSSPMNSIRA
true (1)

And then KICWYQFKANMASQ , what is it?
true (1)

Next substance up: LDTARVNGDSYWSL
true (1)

Proceed to TESVPSWNGMKNMYEDNQLK
true (1)

ASTLPYYECEYR ?
true (1)

Note, next up: HTTGFPFRGLGDIDSLAEQF
false (0)

// same read-out, input: FIMVQRLSCLVVQISRAGAC
true (1)

Proceed to NITLRSQGIVRGQTFICLFW
false (0)

Please answer likewise for VRGYRVGVWLRTGRVLVYRG
false (0)

# repeat for DFDRSMRIARDNKRYGPVLV
false (0)

How about LHGQVYMIQG ?
true (1)

And the next one, VYLFDTYGCSEQFHSVVGYK ?
false (0)

Queued: HRPNCFRWPGLRVLFWYRK
false (0)

Also need FMMTRKGIFELHFISRE , thanks.
true (1)

Now consider ELCTKAINVMN and answer again.
true (1)

Would you mind doing CGCHCVYSPYYCFLTYWCAN as well?
false (0)

What about FDPIRWLLNYIFMASTLYVE ?
false (0)

# repeat for YRILVNFAVVSMVRINRSFW
false (0)
